Test: Triptolide plasma toxicokinetics in mice
Format: in vivo
Conditions: C57, mouse, iv, 1 mg/kg, with tariquidar 10 mg/kg iv, 20 min before TP, TP 1.0 mg/kg iv, tariquidar 10 mg/kg iv 20 min prior
metric: Vd (L/kg)
Numbers only here, please. The scale is L/kg.

Record summary for CC(C)[C@]12O[C@H]1[C@@H]1O[C@]13[C@]1(O[C@H]1C[C@H]1C4=C(CC[C@@]13C)C(=O)OC4)[C@@H]2O [TP, Triptolide] : reported Vd = 3.9

---

Assay: Triptolide plasma toxicokinetics in mice
Format: in vivo
Conditions: C57, mouse, iv, 1 mg/kg, TP 1.0 mg/kg iv, 15 nmol mdr1a-siRNA iv 2 days before, read-out: Cmax
metric: Cmax (ng/mL)
Numbers only here, please. The scale is ng/mL.

Record summary for CC(C)[C@]12O[C@H]1[C@@H]1O[C@]13[C@]1(O[C@H]1C[C@H]1C4=C(CC[C@@]13C)C(=O)OC4)[C@@H]2O [TP, Triptolide] : reported Cmax = 510
